Provide the recorded growth for the entries that follow.
- System: BT-549 breast
- protocol: NCI-60 one-dose screen, 48 h (100 = growth as untreated, 0 = no growth, -100 = all killed)
- applied.conditions: 10 µM unless noted
About 83,000 compounds went through this panel and 20% of them were active in at least one assay; those are over-represented in the sample as a whole.
Numbers only, in %.

Please review the following examples before continuing.
O=c1c2cccc3c(Nc4ccc(F)cc4)ccc(c32)c2nc3ccccc3n12 ... 87.5
O=C(Cc1c(F)cccc1Cl)Nc1ccc(S(=O)(=O)Nc2ncccn2)cc1 ... 90.8
O=C(CC(O)c1ccncc1)c1ccccc1 (stereo not drawn) ... -63.7

// input: 4 molecules below; output: growth for each
1. C=CC(=O)N[C@H](/C=C/C(=O)OCC)Cc1ccc(-c2cc(Cl)cc(Cl)c2)cc1
2. CC1Cc2c(N(C)C)ncnc2N(C)c2ccc(Cl)cc21 (stereo not drawn)
3. CCN1C(=O)N(CC)C2C1NN=c1s/c(=C3\C(=O)N(C4CCCC4)c4ccccc43)c(=O)n12 (stereo not drawn)
4. CCn1cc(C(=O)O)c(=O)c2cc(F)c(N3CCN(S(=O)(=O)c4ccc(Cl)cc4Cl)CC3)cc21

Result:
1. 84.6
2. 24.6
3. 20
4. -4.59

Task: Fill in growth for record CCNC(=O)C1CCCN1C(=O)C(CCCN=C(N)N)NC(=O)C(CC(C)C)NC(=O)C(CC(C)C)NC(=O)C(Cc1ccc(O)cc1)NC(=O)C(CO)NC(=O)C(Cc1c[nH]c2ccccc12)NC(=O)C(Cc1cnc[nH]1)NC(=O)C1CCC(=O)N1 (stereo not drawn)
Result: 113

----------
- Test system: OVCAR-8 ovarian
- protocol: NCI-60 one-dose screen, 48 h (100 = growth as untreated, 0 = no growth, -100 = all killed)
- applied.conditions: 10 µM unless noted
This is part of a sample that, as a whole, favours compounds with a hit. Of some 83,000 tested, about 20% had one in any assay.
Grouping key: growth. Bins: lower range = under 30%, middle range = from 30% up to 90%, upper range = 90% and over

Example entries begin here.
CC(C)(C)c1cn2cccc(C(=O)N3CCN(CC(=O)Nc4ccc(Cl)cc4C(=O)c4ccccc4Cl)CC3)c2n1 ... middle range
COc1ccc(/C=C2\CCCC3=C2NC(C)=NC3c2ccc(OC)c(OC)c2)cc1OC (centres undefined) ... lower range
Nc1nc(N)c2nc(CNc3ccc(C(=O)CC(CCC(=O)O)C(=O)O)cc3)cnc2n1 (centres undefined) ... lower range
COc1cc(-c2csc(NC(=O)c3cc(C(F)(F)F)cc(C(F)(F)F)c3)n2)cc(OC)c1OC ... lower range
O=c1cc(C2NCCc3c2[nH]c2ccccc32)c2c(ccc3ccccc32)o1 (centres undefined) ... middle range

Task: Entry Cc1ccc(S(=O)(=O)N2CCC(C(=O)Nc3ccc(F)cc3F)CC2)cc1 belongs to which category?
Result: upper range

Task: Entry O=S(=O)(NCCCNc1cc(-c2cn(-c3ccccc3)nc2-c2cccc(O)c2)ccn1)c1ccc(C(F)(F)F)cc1 belongs to which category?
Result: middle range

Task: Entry O=C(CN1CCOCC1)Nc1ccc(-c2nc3ccccc3s2)cc1 belongs to which category?
Result: upper range

----------
- Test system: SN12C renal
- protocol: NCI-60 one-dose screen, 48 h
- applied.conditions: 10 µM unless noted
This is part of a sample that, as a whole, favours compounds with a hit. Of some 83,000 tested, about 20% had one in any assay. The source made the active and inactive calls. Rule for the calls: active = growth percent below 10; inactive = the rest.
Write down the outcome that applies. Available outcomes: active, inactive

Example entries begin here.
Cc1cccc(NC(=O)c2sc3nc4c(cc3c2N)CCC4)c1C ... inactive
O=C(/C=C/c1ccccc1)n1c(-c2ccc(Cl)cc2)nc2ccccc21 ... active
CC1Cc2c(N(C)C)ncnc2N(C)c2ccc(O)cc21 (centres undefined) ... inactive

Task: How did this test come out for CC1(C)OC2COC3(C(=O)O)OC(C)(C)OC3C2O1 (centres undefined) ?
Result: inactive

Task: How did this test come out for COc1cc(NC(=O)c2cc3ccccc3nc2Nc2ccc(F)cc2)cc(OC)c1OC ?
Result: inactive

Task: How did this test come out for O=C(O)c1cccc([N+](=O)[O-])c1/C=C/c1ccccc1 ?
Result: inactive

Task: How did this test come out for O=C(NCCCN1CCN(CCCNC(=O)C2CCCCC2)CC1)C1CCCCC1 ?
Result: inactive
